- Protocol Notes: Aqueous solubility of the compound in aqueous buffer at 100 uM incubated for 24 hrs under agitation condition by UV-Vis spectrophotometric analysis
- Format: physicochemical
Observable: solubility at 24 h, 100 µM (µM)

# Compound String, Observed Measurement
rows = [
    ("O=C(NC1CCCCCCC1)c1cc2ccccc2[nH]1", 2.4),
    ("O=C(NC1CCCCCCC1)c1cc2ccccc2[se]1", 3.7),
    ("FC(F)(F)c1ccc2cc(CNC3CCCCCCC3)[nH]c2c1", 31),
    ("O=C(NC1CCCCCCC1)c1cc2ccc(C(F)(F)F)cc2[nH]1", 2.2),
    ("Cc1cc(C)c2cc(C(=O)NC3CCCCCCC3)[nH]c2c1", 5.7),
]
